System: HCT-15 colon
Test Details: NCI tumour cell line growth inhibition, 48 h
The entries below come with measured TGI values attached.

CN(C)CCCNc1ccnc2cc([N+](=O)[O-])ccc12: 26.7 µM
CO[C@@H]1C=C[C@@]23c4cc5c(cc4C(O)N(CC2O)C3C1)OCO5 (some centres undefined): 39.3 µM
OCc1ccc2c(c1)CC1(C2)Cc2cc3c(cc2C1)CCC3: > 100 µM
COc1cc(/C=C/c2ccc(OC(C)=O)cc2)cc(OC)c1OC: > 100 µM

Item: COc1cccc(-n2ncc3c(N/N=C/c4ccc(S(C)(=O)=O)cc4)ncnc32)c1 | System: HCT-15 colon | TGI: > 25 µM

// returns TGI for CC1(O)CC23CC1CCC2(C)C12CCCC(C)(C(=O)O1)C2CC3O (centres undefined) with HCT-15 colon; value = > 100 µM

---

Tested on: SNB-19 CNS
Test Details: NCI tumour cell line growth inhibition, 48 h
Items are presented alongside their recorded TGI.

# count of solved cases: 2
Cc1cc(S(=O)(=O)NC2=NC(c3ccccc3)c3ccccc3N2)c(S)cc1Cl (stereo not drawn): > 100 µM
CCCCCCCCCCCCCCCCOCC(COP(=O)([O-])OCC[n+]1ccc(N(C)C)cc1)OCC (stereo not drawn): 14.4 µM

As a next step, examine the compound that follows.
The compound COc1c(Cl)cc(S(=O)O)cc1Cl showed TGI equal to > 100 µM

---

Test system: CAKI-1 renal
Test Details: NCI tumour cell line growth inhibition, 48 h
Use class 1 when the recorded TGI is no lower than 30 µM; use class 0 when it is lower.

Some solved entries appear below for comparison.
CCC1(C(=O)OC)CCc2c(OC)ccc(OC)c2C1=O (stereo not given): class 1
COc1ccc2c(c1)CCCN1Cc3cc(OC)c(OC)cc3CC21 (stereo not given): class 1
Cc1ccccc1-c1c(N)nc(N)nc1C(=O)Nc1nccs1: class 1
Nc1ccc2cc3[nH]c4cc(N)ccc4c3nc2c1: class 0
O=C(Nc1ccccc1)NS(=O)(=O)c1ccc(N2N=C3c4ccccc4CC3C2c2ccccn2)cc1 (stereo not given): class 1

Q: State whether the measured TGI reaches 30 µM, counting equality as reaching it, for Cc1ccc(C(CC(=O)C(C)(C)CN2CCCCC2)SCCS(=O)(=O)O)cc1 (stereo not given)
A: class 1

Q: Please indicate if the recorded TGI for CC(=O)OC1CCC2(C)C(CCC3C4CC=C(C(C)=O)C4(C)OC(=O)CC32)C1 (stereo not given) meets or exceeds 30 µM.
A: class 0

Q: Hi team, for COc1ccc(/C=C2\SC(c3ccc(OC)cc3)N(NC(=O)Cc3ccccc3)C2=O)cc1 (stereo not given) , is the recorded TGI at or above 30 µM?
A: class 1

---

Test system: MOLT-4 leukemia
Test Details: NCI tumour cell line growth inhibition, 48 h
# if value of TGI reaches 6 µM, tag t; if it stays below, tag f

N#Cc1c(N)c2c(c(-c3ccccc3)c1-c1ccccc1)C(=O)N(NC(=O)c1ccccc1)C2=O: t

Q: Exam item: decide whether the reported TGI for CC(=O)OC1C/C(C)=C/CCC(C)/C=C/C2(C)CCC(C(C)(C)O)C12 (stereo unspecified) is at least 6 µM.
A: t

Q: Tell me whether TGI is at least 6 µM here: CCOC(=O)CCC(NC(=O)c1ccc(Nc2nc3ccccc3n3cccc23)cc1)C(=O)OCC (stereo unspecified)
A: t

Q: Item C[C@H]1CCCCC[C@@H]2CC(=O)CC2C(=O)CCC(=O)O1 (stereo partly specified) with TGI of 6 µM or above?
A: t
